Tested on: Fathead minnow (Pimephales promelas) acute toxicity, lethality
Experiment: DSSTox (EPAFHM) EPA Fathead Minnow Acute Toxicity
Record form. Attribute: Potency. Fill in for each entry.

Quick one: Potency of CCc1cccc(CC)c1 ?
30.9 µM

Input Clc1ccccc1
150 µM

Input CCCCCCCN
189 µM

Input Brc1nc(Br)c(Br)[nH]1
20.1 µM

Input CCCCCCCCN
40.2 µM

Input CC(=O)C(C)(C)C
869 µM

Input CC(C)[C@@H]1CC[C@@H](C)C[C@H]1O
121 µM

Input CCN(CC)c1ccc(C=O)cc1
135 µM

Input Oc1ccccc1
347 µM

Input CCOC(=O)N(C(=O)OCC)C(=O)OCC
57 µM

Input O=C1C[C@@H]2OCC=C3CN4CC[C@]56c7ccccc7N1[C@H]5[C@H]2[C@H]3C[C@H]46
1.11 µM

Input CC(=O)c1ccncc1
1390 µM

Input CC(C)(O)CCc1ccccc1
404 µM

Input COc1cccc(O)c1
596 µM

Input Cc1ccc(S(=O)(=O)n2ccnc2)cc1
188 µM

Input Nc1ccc([N+](=O)[O-])cc1
905 µM

Input CC(=O)CC(C)=O
1350 µM

Input CC1(N)CCC(C(C)(C)N)CC1 (centres undefined)
383 µM

Input Cc1ncc[nH]1
3480 µM

Input CCCCOC(=O)CCC(=O)OCCCC
19.4 µM

Input Cc1nnc(N)nc1C
7670 µM

Input COc1cc(C=O)cc(Br)c1O
258 µM

Input O=[N+]([O-])c1ccccc1Oc1ccc(Cl)cc1
7.69 µM

Input C=C(C)C(=O)OCc1ccccc1
26.5 µM

Input CC(C)[C@H](C(=O)OC(C#N)c1cccc(Oc2ccccc2)c1)c1ccc(OC(F)F)cc1 (some centres undefined)
0.000421 µM

Input C#CC(O)CCCC (centres undefined)
15.7 µM

Input O=Cc1cc(O)ccc1[N+](=O)[O-]
251 µM

Input CCCCCCCCCCCN
1.23 µM

Input Cc1nc(C)c(C)o1
4040 µM

Input CCOCCOCCO
198000 µM

Input CCCCCN
2030 µM

Input CC1=CC(=O)c2ccccc2C1=O
0.639 µM

Input CCOC(=O)CCCCCCCCC(=O)OCC
10.5 µM

Input CCc1ccccc1
98.9 µM

----------
System: Fathead minnow (Pimephales promelas) acute toxicity, lethality
Experiment: DSSTox (EPAFHM) EPA Fathead Minnow Acute Toxicity
Record form. Attribute: Potency. Fill in for each entry.

Quick one: Potency of CC(C)C(O)C(C)C ?
1400 µM

Input O=Cc1ccc(Oc2ccccc2)cc1
23.2 µM

Input ClC(Cl)(Cl)C(Cl)(Cl)Cl
6 µM

Input C1OCOCO1
66100 µM

Input CCOP(=S)(OCC)SCSC(C)(C)C
0.0461 µM

Input O=[N+]([O-])c1ccc(Oc2ccccc2)cc1
12.3 µM

Input CC(=O)c1ccc(Cl)c([N+](=O)[O-])c1
27.6 µM

Input Oc1ccc(N=Nc2ccccc2)cc1
6 µM

----------
Test system: Fathead minnow (Pimephales promelas) acute toxicity, lethality
Assay: DSSTox (EPAFHM) EPA Fathead Minnow Acute Toxicity
Record form. Attribute: Potency. Fill in for each entry.

What Potency appears in the records for this compound with Fathead minnow (Pimephales promelas) acute toxicity, lethality? OC(c1ccc(Cl)cc1)(c1ccc(Cl)cc1)C(Cl)(Cl)Cl
1.67 µM

Input N#CCCCCC#N
17900 µM

Input CCC#N
27600 µM

Input ClCc1ccc(CCl)cc1
0.223 µM

Input Oc1ccccc1Cl
88.7 µM

Input Cc1c[nH]c2ccccc12
67.4 µM

Input CNC(=O)Oc1cccc2ccccc12
43.5 µM

Input CCCCOc1ccccc1
38 µM

Input C=CCNc1ccccc1
270 µM
